Measured values drawn from patent US20100068215A1 for this set.

- target under test: T1, GDF8 (UniProt O14793 267-375)
- T1 construct: also called myostatin; Growth and Differentiation Factor-8
- T1 sequence (looked up): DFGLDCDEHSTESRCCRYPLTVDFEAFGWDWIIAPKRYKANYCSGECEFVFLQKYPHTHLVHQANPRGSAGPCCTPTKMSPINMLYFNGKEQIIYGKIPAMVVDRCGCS
- assay: Biacore; ActRIIB-Fc captured by anti-hFc antibody, ligand injected
Listed next: entries and their corresponding koff.

Ask: Report koff for ActRIIB(R64K 20-129)-hFc (Fc fusion, not shown: human Fc domain (hFc)) GRGEAETRECIYYNANWELERTNQSGLERCEGEQDKRLHCYASWKNSSGTIELVKKGCWLDDFNCYDRQECVATEENPQVYFCCCEGNFCNERFTHLPEAGGPEVTYEPPGGG please.
Result: 0.000209 s⁻¹

Ask: Report koff for ActRIIB(P129S, P130R 20-134)-hFc (Fc fusion, kept as two molecules; not shown: human Fc domain (hFc)) GRGEAETRECIYYNANWELERTNQSGLERCEGEQDKRLHCYASWRNSSGTIELVKKGCWLDDFNCYDRQECVATEENPQVYFCCCEGNFCNERFTHLPEAGGPEVTYEPSRTAPTGGG please.
Result: 0.00018 s⁻¹

Ask: Report koff for ActRIIB(R64K 20-134)-hFc (Fc fusion, not shown: human Fc domain (hFc)) GRGEAETRECIYYNANWELERTNQSGLERCEGEQDKRLHCYASWKNSSGTIELVKKGCWLDDFNCYDRQECVATEENPQVYFCCCEGNFCNERFTHLPEAGGPEVTYEPPPTAPTGGG please.
Result: 4.71e-05 s⁻¹

Ask: Report koff for ActRIIB(20-134)-hFc (Fc fusion) GRGEAETRECIYYNANWELERTNQSGLERCEGEQDKRLHCYASWRNSSGTIELVKKGCWLDDFNCYDRQECVATEENPQVYFCCCEGNFCNERFTHLPEAGGPEVTYEPPPTAPTGGGTHTCPPCPAPELLGGPSVFLFPPKPKDTLMISRTPEVTCVVVDVSHEDPEVKFNWYVDGVEVHNAKTKPREEQYNSTYRVVSVLTVLHQDWLNGKEYKCKVSNKALPVPIEKTISKAKGQPREPQVYTLPPSREEMTKNQVSLTCLVKGFYPSDIAVEWESNGQPENNYKTTPPVLDSDGSFFLYSKLTVDKSRWQQGNVFSCSVMHEALHNHYTQKSLSLSPGK please.
Result: 3.45e-05 s⁻¹

Shift focus to the following entry.
Ask: Report koff for ActRIIB(K74A 20-134)-hFc (Fc fusion, not shown: human Fc domain (hFc)) GRGEAETRECIYYNANWELERTNQSGLERCEGEQDKRLHCYASWRNSSGTIELVAKGCWLDDFNCYDRQECVATEENPQVYFCCCEGNFCNERFTHLPEAGGPEVTYEPPPTAPTGGG please.
Result: 2.03e-05 s⁻¹
